Source of measurements: patent US11116760B2

pEC50 by entry:
Target: α4β7 integrin (Homo sapiens (Human), UniProt P13612+P26010)
Sequence (P13612 34-1032): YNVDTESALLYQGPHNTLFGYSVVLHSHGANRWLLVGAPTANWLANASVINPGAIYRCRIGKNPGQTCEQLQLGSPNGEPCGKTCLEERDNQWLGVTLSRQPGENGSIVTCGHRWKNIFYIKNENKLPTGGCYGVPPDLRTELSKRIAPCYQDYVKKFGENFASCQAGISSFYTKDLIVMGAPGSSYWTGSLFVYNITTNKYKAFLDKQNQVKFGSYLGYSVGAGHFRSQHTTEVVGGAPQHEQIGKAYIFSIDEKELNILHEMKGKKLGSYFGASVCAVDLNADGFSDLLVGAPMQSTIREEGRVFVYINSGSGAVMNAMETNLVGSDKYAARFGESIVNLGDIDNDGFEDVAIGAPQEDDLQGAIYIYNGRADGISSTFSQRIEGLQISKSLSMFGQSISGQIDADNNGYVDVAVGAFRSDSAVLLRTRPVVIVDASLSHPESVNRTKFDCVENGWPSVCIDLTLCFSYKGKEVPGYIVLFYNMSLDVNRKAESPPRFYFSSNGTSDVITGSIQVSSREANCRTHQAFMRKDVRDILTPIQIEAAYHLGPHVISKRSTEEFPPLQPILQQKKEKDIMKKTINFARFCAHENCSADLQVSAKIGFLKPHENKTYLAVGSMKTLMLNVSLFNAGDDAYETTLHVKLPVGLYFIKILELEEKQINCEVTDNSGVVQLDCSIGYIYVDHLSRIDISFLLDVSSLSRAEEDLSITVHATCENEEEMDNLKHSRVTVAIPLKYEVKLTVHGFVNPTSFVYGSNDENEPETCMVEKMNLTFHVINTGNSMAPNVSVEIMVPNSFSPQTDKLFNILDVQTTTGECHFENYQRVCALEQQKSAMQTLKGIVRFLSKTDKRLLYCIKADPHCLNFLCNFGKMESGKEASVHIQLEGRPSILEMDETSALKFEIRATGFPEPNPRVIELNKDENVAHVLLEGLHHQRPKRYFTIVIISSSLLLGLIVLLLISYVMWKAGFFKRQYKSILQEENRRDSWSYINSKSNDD
Sequence (P26010 20-798): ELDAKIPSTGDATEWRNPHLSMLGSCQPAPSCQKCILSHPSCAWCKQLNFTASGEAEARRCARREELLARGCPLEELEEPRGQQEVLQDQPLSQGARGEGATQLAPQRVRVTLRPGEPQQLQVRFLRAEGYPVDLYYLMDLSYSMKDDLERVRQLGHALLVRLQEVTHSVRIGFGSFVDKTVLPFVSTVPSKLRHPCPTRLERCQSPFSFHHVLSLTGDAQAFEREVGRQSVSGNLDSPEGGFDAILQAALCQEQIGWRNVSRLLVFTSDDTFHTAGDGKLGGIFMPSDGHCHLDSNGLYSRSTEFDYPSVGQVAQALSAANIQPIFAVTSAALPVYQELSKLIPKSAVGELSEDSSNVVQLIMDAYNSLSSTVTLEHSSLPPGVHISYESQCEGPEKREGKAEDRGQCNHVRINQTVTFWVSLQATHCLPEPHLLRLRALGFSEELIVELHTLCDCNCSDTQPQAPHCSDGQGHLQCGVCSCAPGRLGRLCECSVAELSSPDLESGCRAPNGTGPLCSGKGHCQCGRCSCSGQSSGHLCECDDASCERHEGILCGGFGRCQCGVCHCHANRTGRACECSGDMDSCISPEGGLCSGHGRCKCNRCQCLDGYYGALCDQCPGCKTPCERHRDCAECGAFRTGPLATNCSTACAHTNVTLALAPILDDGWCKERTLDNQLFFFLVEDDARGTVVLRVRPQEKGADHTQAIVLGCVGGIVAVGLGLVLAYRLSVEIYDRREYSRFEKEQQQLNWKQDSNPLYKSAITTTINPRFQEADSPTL
Assay: α4β7 Integrin Cell Capture Assay
Format: cell-based
Details: RPMI8866 cells captured on MadCAM-1 extracellular domain-coated plate
pEC50: −log10 of the molar value.
OBSERVATION_TYPE: pEC50

> print(dat)
                  compound.structure.string  observation.type  assay.value
1  CC[C@@H](Nc1cc(C)c(C(=O)N[C@@H](Cc2ccc(-n3c(=O)c4ccncc4n(C)c3=O)c3ncccc23)C(=O)O)c(F)c1)C(F)(F)F             pEC50        10.31
2  Cc1cc(N2CCOC[C@@H]2C(F)(F)F)cc(F)c1C(=O)N[C@@H](Cc1ccc(-n2c(=O)c3cnccc3n(C)c2=O)c2ncc(F)cc12)C(=O)O             pEC50         9.45
3  CN1CCc2c(cc(-c3ccc(C[C@H](NC(=O)c4c(F)cc(N5CCOC[C@@H]5C(F)(F)F)cc4F)C(=O)O)c4cccnc34)c(=O)n2C)C1             pEC50         9.58
4  Cn1c(=O)n(-c2ccc(C[C@H](NC(=O)c3c(F)cc(N4CCOC[C@@H]4C(F)(F)F)cc3F)C(=O)O)c3cc(F)cnc23)c(=O)c2cnccc21             pEC50         9.33
5  Cc1cnc(-c2c(F)cc(C[C@H](NC(=O)c3c(C)cc(N4CCOC[C@@H]4C(F)(F)F)cc3F)C(=O)O)c3cccnc23)nc1C             pEC50         8.82
6  CC[C@@]1(C)CN(c2cc(F)c(C(=O)N[C@@H](Cc3ccc(-c4c(C(F)(F)F)cc(C)n(C)c4=O)c4ncccc34)C(=O)O)c(F)c2)CCO1             pEC50         9.01

====

Molecular target: α4β7 integrin (Homo sapiens (Human), UniProt P13612+P26010)
Experiment: α4β7 Integrin Cell Capture Assay
Type: cell-based
Conditions: Table 2; capture of α4β7 expressing RPM18866 cells on MadCAM-1 extracellular domain-coated plate
pEC50: −log10 of the molar value.
OBSERVATION_TYPE: pEC50

> print(dat)
                                   compound  assay.value
1  Cn1cc(-c2ccc(C[C@H](NC(=O)c3c(F)cc(N[C@H](c4ccc(Cl)cc4)C(F)(F)F)cc3F)C(=O)O)c3cccnc23)c(=O)n(C)c1=O [Example 232]         9.05
2  Cc1nc(-c2ccc(C[C@H](NC(=O)c3c(F)cc(N4CCOC[C@@H]4C(F)(F)F)cc3F)C(=O)O)c3cccnc23)c(=O)n(C)c1C [Example 151]         9.70
3  Cc1ccnc(-c2ccc(C[C@H](NC(=O)c3c(F)cc(N4CCOC[C@@H]4C(F)(F)F)cc3F)C(=O)O)c3cccnc23)c1C(F)(F)F [Example 223]         8.66
4  CC(=O)Cc1cc(F)c(C(=O)N[C@@H](Cc2ccc(-c3ccc(C#N)cc3Cl)c3ncccc23)C(=O)O)c(F)c1 [Example 221]         7.32
5  C[C@@H](Nc1cc(F)c(C(=O)N[C@@H](Cc2ccc(-c3nc(N)ccc3C(F)(F)F)c3ncccc23)C(=O)O)c(F)c1)C(F)(F)F [Example 238]         8.55
6  CC[C@@H](Nc1cc(F)c(C(=O)N[C@@H](Cc2ccc(-c3c(Cl)cc(C)n(C)c3=O)c3ncccc23)C(=O)O)c(F)c1)C(F)(F)F [Example 343]         9.15
